# System: OVCAR-5 ovarian
# ASSAY: NCI tumour cell line growth inhibition, 48 h
# maps each entry to its GI50

Study these solved cases before continuing.
SAMPLE SMILES | GI50
CCC(=C(c1ccc(OCCN2CCCC2)cc1)c1ccc(OCCN2CCCC2)cc1)c1ccc(Cl)cc1 | 0.568 µM
N/C(=N/S(=O)(=O)c1cc(C(=O)Nc2ccc(F)cc2)c(Cl)cc1SCc1ccccc1)Nc1ccccc1O | 16.4 µM

Next, consider the following compound.
Q. Determine from records and report GI50 for O=C(CCl)Nc1ccc(Cc2ccc(NC(=O)CCl)cc2)cc1
A. 2.27 µM

---

# Tested on: UO-31 renal
# ASSAY: NCI tumour cell line growth inhibition, 48 h
METRIC NAME: TGI

MOLECULE | TEST VALUE
COc1ccc(/C=C/c2nc(=S)[nH][nH]2)cc1OC | > 100 µM

Q. # return TGI for CCOC(=O)CCn1cnc(N)n1 , test system: UO-31 renal
A. > 100 µM

Q. # return TGI for COC(=O)C(=O)C(C(C)=O)C(=O)C(=O)Nc1ccc(C)cc1C (stereo not given) , test system: UO-31 renal
A. > 100 µM

Q. # return TGI for CC(=O)O[C@H]1CC[C@]2(C)C3C(=O)C[C@]4(C)[C@@H](C(C)CCC(=O)O)CC[C@@]4(C)[C@@H]3CC[C@H]2C1(C)C (stereo not given in full) , test system: UO-31 renal
A. > 50 µM

Q. # return TGI for CN1/C(=C/C=C/c2n(Cc3ccc4ccccc4c3)c(Cl)c(Cl)[n+]2Cc2ccc3ccccc3c2)Oc2ccccc21 , test system: UO-31 renal
A. 2.65 µM

Q. # return TGI for CCN(CC)CCCC(C)Nc1ccnc(/C=C/c2ccc(Cl)cc2)c1 (stereo not given) , test system: UO-31 renal
A. 3.17 µM

Q. # return TGI for C=CCN1C(=O)[C@]2(SC1=S)[C@H](c1cccc(Cl)c1)CN(C)[C@]21C(=O)NC2C=CC(Cl)=C[C@H]21 (stereo not given in full) , test system: UO-31 renal
A. 9.06 µM

Q. # return TGI for COc1cc(OC)nc(-n2c(N)c(C(=O)O)c3ccc([N+](=O)[O-])cc3c2=O)n1 , test system: UO-31 renal
A. > 100 µM

Q. # return TGI for CCCC(C(=O)Nc1cccc2[nH]cnc12)C(=O)OCC (stereo not given) , test system: UO-31 renal
A. > 100 µM

Q. # return TGI for COC(=O)CNC(=O)CSc1nnc(COc2ccc(Cl)cc2)n1-c1ccccc1 , test system: UO-31 renal
A. 77.3 µM

Q. # return TGI for O=C(NCc1ccccc1)C1C(=O)C(=O)N(Cc2ccccc2)C1=O (stereo not given) , test system: UO-31 renal
A. > 100 µM

Q. # return TGI for COc1cccc(/C=C/C(=O)N2CC(CCl)c3c2cc(N)c2ccccc32)c1 (stereo not given) , test system: UO-31 renal
A. > 100 µM

---

# Test system: SK-MEL-28 melanoma
# ASSAY: NCI tumour cell line growth inhibition, 48 h
# maps each entry to its TGI

Study these solved cases before continuing.
MOLECULE | METRIC NAME | TEST VALUE
COC1OC(Cn2cc([N+](=O)[O-])nc2C)C(O)C(O)C1O (centres undefined) | TGI | > 100 µM
COC(=O)CNC(=O)CSc1nnc(COc2ccc(Cl)cc2)n1-c1ccccc1 | TGI | 81.3 µM
COC1C(=O)N(SC)C1c1ccccc1Cl (centres undefined) | TGI | > 100 µM

Q. Determine from records and report TGI for CC1(C)CC[C@]2(CO)CC[C@]3(C)C(=CC[C@@H]4[C@@]5(C)CCNCC(C)(C)[C@@H]5CC[C@]43C)[C@@H]2C1
A. 5.39 µM

Q. Determine from records and report TGI for CC1OC(CC2C=CCc3c(O)c4c(c(O)c32)C(=O)c2ccccc2C4=O)CC(NC(=O)C(F)(F)F)C1O (centres undefined)
A. 16.1 µM

Q. Determine from records and report TGI for Cc1cc(S(=O)(=O)NC2=NCC(C)(C)CN2)c(S)cc1Cl
A. > 100 µM

Q. Determine from records and report TGI for Nc1ncnc2c1ncn2CCCCC(=O)O
A. > 100 µM

Q. Determine from records and report TGI for COC(=O)[C@@H]1[C@H]2CC[C@]3(C)[C@@H](OC(C)=O)CC[C@H]3[C@@H]2CC[C@H]1C(C)=O
A. > 100 µM

Q. Determine from records and report TGI for FC(F)(F)c1nc(Br)[nH]c1C(F)(F)F
A. > 100 µM

---

# Tested on: MDA-MB-435
# maps each entry to its GI50

Study these solved cases before continuing.
COMPOUND | SYSTEM | TEST VALUE
COc1ccc(NC(=O)c2cccc(C3CCc4c(cc(OC)c(OC)c4OC)O3)c2)cc1 (stereo not given) | MDA-MB-435 | 0.528 µM
COc1ccc(-c2nnc(Nc3nc(O)c(C4=c5cc(Br)ccc5=NC4=O)s3)o2)cc1 | MDA-MB-435 | 23.8 µM
O=C(COc1cccc(/C=C2\Oc3ccc4ccccc4c3C2=O)c1)c1ccc([N+](=O)[O-])cc1 | MDA-MB-435 | 28.9 µM
CC(=O)c1ccc(Oc2c3ccccc3nc3occc23)cc1 | MDA-MB-435 | 2.02 µM
Cc1ccc(C2C3Cc4ccccc4C3=NN2c2ccc(S(=O)(=O)NC(=O)Nc3ccccc3)cc2)cc1 (stereo not given) | MDA-MB-435 | 18.7 µM
CCCCNCCCCCNc1cc(OC)cc2cccnc12 | MDA-MB-435 | 19.8 µM
CCOP(=O)(OCC)C(NC(c1ccccc1)c1ccccc1)c1ccc(C(C)C)cc1 (stereo not given) | MDA-MB-435 | 3.71 µM
CN(C)C/C=C/C(=O)Nc1cc2c(Nc3cccc(Cl)c3F)ncnc2cc1OCCOC(F)F | MDA-MB-435 | 2.22 µM

Q. Determine from records and report GI50 for CC(=O)/C=C/c1ccc(N(CCO)Cc2ccc(C(C)(C)C)cc2)cc1
A. 64 µM

Q. Determine from records and report GI50 for O=C(Nc1ccc(Cl)cc1)N1CCN(c2ccc3nncn3n2)CC1
A. 64.3 µM

---

# Test system: A498 renal
# ASSAY: NCI tumour cell line growth inhibition, 48 h
# maps each entry to its GI50

COMPOUND | GI50
COC(=O)[C@H](CCCCNC(=O)OCc1ccccc1)NC(=O)[C@@H](NC(=O)Nc1cc(C(F)(F)F)cc(C(F)(F)F)c1)C(C)C | > 10 µM

Q. Determine from records and report GI50 for Cc1cn2c(/C=C3\C(=O)N(C)c4ccc(Cl)cc43)c(C)nc2s1
A. 10.8 µM

Q. Determine from records and report GI50 for Cc1ccc(C2C3Cc4ccccc4C3=NN2c2ccc(S(=O)(=O)NC(=O)Nc3ccccc3)cc2)cc1 (centres undefined)
A. 15.6 µM

Q. Determine from records and report GI50 for Clc1ccc(N2N=C(c3cccc(Nc4ccncc4)c3)CC2c2ccc(Br)cc2)cc1 (centres undefined)
A. 1.07 µM

---

# maps each entry to its TGI
# System: MCF7 breast
# ASSAY: NCI tumour cell line growth inhibition, 48 h

Study these solved cases before continuing.
MOLECULE | SYSTEM | TGI
C/C(=N\NC(=S)N1CCN(c2ccccn2)CC1)c1cccc2cccnc12 | MCF7 breast | > 100 µM
CCOC(=O)c1ccc(NC(=O)c2cccc(NC3=C(Cl)C(=O)N(Cc4ccccc4)C3=O)c2)cc1 | MCF7 breast | > 100 µM
O=C(CC1Sc2ccccc2NC1=O)NNc1ccc(F)cc1 (stereo not given) | MCF7 breast | > 100 µM
O=C(Nc1cc2cc([N+](=O)[O-])ccc2oc1=O)c1cccs1 | MCF7 breast | 85.2 µM

Q. Determine from records and report TGI for CN1N=C(c2ccccc2)c2cc(Cl)ccc2N=C1N/N=C/c1ccc(N(C)C)cc1
A. > 100 µM

---

# Tested on: HCT-116 colon
# ASSAY: NCI tumour cell line growth inhibition, 48 h
# maps each entry to its TGI

Study these solved cases before continuing.
COMPOUND | TGI
CC(C)(C)OC(=O)C1/C(=C/CBr)CN1C(=O)OC(C)(C)C (stereo not given) | 26.7 µM
C[Si](C)(C)/C=C/CN1C(=O)CCC1=O | > 100 µM
NC(Cc1c[nH]c2cccc(F)c12)C(=O)O (stereo not given) | 1000 µM
COc1cc(C(=O)OC2CC34CCNC35CC(OC5(OC)C2O)c2cc3c(cc24)OCO3)ccc1O (stereo not given) | > 100 µM
COC(=O)/C(C#N)=C/c1cc(C(C)(C)C)c(O)c(C(C)(C)C)c1 | 10.5 µM
CC(=O)O[C@H]1CC[C@]2(C)C3C(=O)C[C@]4(C)[C@@H](C(C)CCC(=O)O)CC[C@@]4(C)[C@@H]3CC[C@H]2C1(C)C (stereo not given in full) | 20.5 µM
Oc1ccc(/C=N/NC(=S)Nc2cccnc2)nc1 | > 100 µM
CN1N=C(c2ccccc2)c2cc(Cl)ccc2N=C1N/N=C/c1ccc(N(C)C)cc1 | > 100 µM
COC(=O)/C(=N\N)C(C(=O)C(=O)Nc1nc(=S)[nH][nH]1)c1nc2ccc([N+](=O)[O-])cc2[nH]c1=O (stereo not given) | > 100 µM

Q. Determine from records and report TGI for COC(=O)C(C#N)C1NC(=O)c2ccccc21 (stereo not given)
A. > 100 µM
